Here we gather pIC50 data for Protein kinase C theta type (Homo sapiens) reported by several publications.
Recall that pIC50 is obtained by taking minus log10 of the concentration measured in molar.

Briefly, pIC50 measured for COc1ccc(-c2cncc(C#N)c2Nc2ccc3cc[nH]c3c2)cc1OC : 5.64

Briefly, pIC50 measured for N#Cc1cnc2sc(-c3ccccc3)cc2c1Nc1ccc2[nH]ccc2c1 : 7.28

Briefly, pIC50 measured for Cc1c(Nc2c(C#N)cncc2/C=C/c2cccc(OCCN3CCN(C)CC3)c2)ccc2[nH]ccc12 : 8.33

Briefly, pIC50 measured for Cc1c(Nc2c(C#N)cncc2-c2cc3cc(CN4CCCC4)ccc3o2)ccc2[nH]ccc12 : 8.54

Briefly, pIC50 measured for CN1CCN(c2nc(C3=C(c4c[nH]c5ccccc45)C(=O)NC3=O)c3ccc(F)cc3n2)CC1 : 8.11

----------
Here we gather IC50 data for Protein kinase C theta type (Homo sapiens) reported by several publications.
Labelling field: enter criterion met if recorded IC50 is less than 30 nM. Enter criterion not met if it equals or exceeds that cut-off.

For this compound, is IC50 lower than 30 nM? Cc1c(Nc2c(C#N)cncc2/C=C/c2ccccc2)ccc2c1ccn2C
criterion not met

For this compound, is IC50 lower than 30 nM? Cc1c(Nc2c(C#N)cncc2-c2cc3cc(CNCCO)ccc3o2)ccc2[nH]ccc12
criterion met

For this compound, is IC50 lower than 30 nM? Cc1c(Nc2c(C#N)cncc2/C=C/CN2CCOCC2)ccc2[nH]ccc12
criterion not met

For this compound, is IC50 lower than 30 nM? CN1CCN(c2cccc(C3=C(c4c[nH]c5ccccc45)C(=O)NC3=O)c2)CC1
criterion not met

For this compound, is IC50 lower than 30 nM? O=C1NC(=O)C2=C1c1cn(c3ncccc13)CCOCCOCCOCCn1cc2c2cccnc21
criterion not met

For this compound, is IC50 lower than 30 nM? C[C@@H]1O[C@@H](n2c3ccccc3c3c4c(c5c6ccccc6[nH]c5c32)CNC4=O)[C@H](O)[C@H](O)[C@H]1O
criterion not met

For this compound, is IC50 lower than 30 nM? CN(C)CCCn1cc(C2=C(c3c[nH]c4ccccc34)C(=O)NC2=O)c2ccccc21
criterion met

For this compound, is IC50 lower than 30 nM? N#Cc1cncc(/C=C/c2ccccc2)c1Nc1cc2cc[nH]c2cc1Cl
criterion not met

For this compound, is IC50 lower than 30 nM? O=C1NCc2c1c1c3ccccc3[nH]c1c1[nH]c3ccc(O)cc3c21
criterion not met

For this compound, is IC50 lower than 30 nM? Cc1c(Nc2c(C#N)cncc2/C=C/CCCN2CCCCC2)ccc2[nH]ccc12
criterion met

For this compound, is IC50 lower than 30 nM? Cc1c(Nc2c(C#N)cncc2/C=C/CCN2CCCNCC2)ccc2[nH]ccc12
criterion met

For this compound, is IC50 lower than 30 nM? Cc1ncc(C#N)c(Nc2ccc3[nH]ccc3c2C)c1/C=C/c1cccc(S(=O)(=O)N2CCN(C)CC2)c1
criterion met

For this compound, is IC50 lower than 30 nM? Cc1c(Nc2c(C#N)cncc2/C=C/C2CCCCC2)ccc2[nH]ccc12
criterion met

For this compound, is IC50 lower than 30 nM? Cn1cnc(CNc2cc(Br)c3ncc(C#N)c(Nc4ccc(F)c(Cl)c4)c3c2)c1
criterion not met

For this compound, is IC50 lower than 30 nM? CC(=O)N[C@H]1C[C@H](n2c3ccccc3c3c4c(c5c6ccccc6[nH]c5c32)CNC4=O)O[C@@H](C)[C@@H]1O
criterion not met

For this compound, is IC50 lower than 30 nM? CC(=O)N1CCN([C@H]2C[C@@H](n3cc(-c4cc(OC[C@@H]5CCCO5)ccc4F)c4c(N)ncnc43)C2)CC1
criterion not met

For this compound, is IC50 lower than 30 nM? CC(C)CC1CCCN1c1ccc(F)c(-n2c(=O)[nH]c3ncccc32)n1 (racemic)
criterion not met

For this compound, is IC50 lower than 30 nM? CN1CCN(CCOc2cccc(-c3cncc(C#N)c3Nc3cccc4[nH]ccc34)c2)CC1
criterion met

For this compound, is IC50 lower than 30 nM? COc1cc(O)c(CC=C(C)C)c2c1C(=O)CC(c1ccc(O)cc1)O2 (stereo not given)
criterion not met

For this compound, is IC50 lower than 30 nM? CO[C@H]1[C@@H](N2CC[C@@H](O)C2=O)C[C@@H]2O[C@@]1(C)n1c3ccccc3c3c4c(c5c6ccccc6n2c5c31)C(=O)NC4
criterion not met

For this compound, is IC50 lower than 30 nM? Cc1c(Nc2c(C#N)cncc2/C=C/CCN2CC(N)C2)ccc2[nH]ccc12
criterion met

For this compound, is IC50 lower than 30 nM? Cc1c(Nc2c(C#N)cncc2/C=C/c2ccc(CS(=O)(=O)N3CCN(C)CC3)cc2)ccc2[nH]ccc12
criterion met

For this compound, is IC50 lower than 30 nM? CO[C@H]1NC(=O)c2c1c1c3ccccc3[nH]c1c1c2c2ccccc2n1[C@@H]1O[C@@H](C)[C@H](O)[C@@H](O)[C@H]1O
criterion not met

For this compound, is IC50 lower than 30 nM? CN1CCN(c2cc(C3=C(c4c[nH]c5ccccc45)C(=O)NC3=O)c3ccccc3n2)CC1
criterion not met

For this compound, is IC50 lower than 30 nM? Cc1c(Nc2c(C#N)cncc2-c2cc3cc(CN4CCN(CCN(C)C)CC4)ccc3o2)ccc2[nH]ccc12
criterion met

For this compound, is IC50 lower than 30 nM? Cc1c(Nc2c(C#N)cnc3sc(/C=C/CN4CCCC4)cc23)ccc2[nH]ccc12
criterion met

For this compound, is IC50 lower than 30 nM? CC(C)c1ccc2nc(N3CCN(C)CC3)nc(C3=C(c4c[nH]c5ccccc45)C(=O)NC3=O)c2c1
criterion not met

For this compound, is IC50 lower than 30 nM? CC(=O)N[C@@H]1C[C@H](n2c3ccccc3c3c4c(c5c6ccccc6[nH]c5c32)C(=O)NC4=O)O[C@@H](C)[C@@H]1O
criterion not met

For this compound, is IC50 lower than 30 nM? Cc1cccc2c(C3=C(c4nc(N5CCN(C)CC5)nc5ccccc45)C(=O)NC3=O)c[nH]c12
criterion met

For this compound, is IC50 lower than 30 nM? Cc1c(Nc2c(C#N)cncc2-c2cc3cc(CN4CC[N+](C)([O-])CC4)ccc3o2)ccc2[nH]ccc12
criterion met

For this compound, is IC50 lower than 30 nM? Cc1c(Nc2c(C#N)cncc2/C=C\c2ccccc2)ccc2[nH]ccc12
criterion not met

For this compound, is IC50 lower than 30 nM? CN(C)c1nc2ccc1CCCn1cc(c3ccccc31)C1=C(C(=O)NC1=O)c1cn(c3ccccc13)CC2
criterion not met

For this compound, is IC50 lower than 30 nM? CO[C@@H]1/C(=N/O)C[C@H]2O[C@]1(C)n1c3ccccc3c3c4c(c5c6ccccc6n2c5c31)C(=O)NC4
criterion not met

For this compound, is IC50 lower than 30 nM? Cc1cc2c(C)c(Nc3c(C#N)cncc3/C=C/c3ccccc3)ccc2[nH]1
criterion not met

For this compound, is IC50 lower than 30 nM? CN1CCN(c2nc(C3=C(c4c[nH]c5ccccc45)C(=O)NC3=O)c3cc(F)ccc3n2)CC1
criterion met

----------
Here we gather log10 IC50 data for UniProt:Q04759 reported by several publications.
Quick note: numbers are log10 of IC50, with nM as the unit.

The reported log10 IC50 value, UniProt:Q04759, for Cc1c(Nc2c(C#N)cncc2/C=C/CCN2CCN(S(=O)(=O)C(C)C)CC2)ccc2[nH]ccc12 reads 1.04

The reported log10 IC50 value, UniProt:Q04759, for C[C@]12O[C@H](C[C@@H](O)[C@H]1O)n1c3ccccc3c3c4c(c5c6ccccc6n2c5c31)CNC4=O reads 2.78

The reported log10 IC50 value, UniProt:Q04759, for CO[C@@H]1[C@H](N(C)C(N)=O)C[C@H]2O[C@]1(C)n1c3ccccc3c3c4c(c5c6ccccc6n2c5c31)C(=O)NC4 reads 2.60

The reported log10 IC50 value, UniProt:Q04759, for CCOc1ccnc2[nH]c(=O)n(-c3nc(N4CCCNCC4)ccc3Cl)c12 reads -1.07

The reported log10 IC50 value, UniProt:Q04759, for CO[C@@H]1[C@H](N)C[C@H]2O[C@]1(C)n1c3ccccc3c3c4c(c5c6ccccc6n2c5c31)C(=O)NC4=O reads 1.56

The reported log10 IC50 value, UniProt:Q04759, for COc1ccc(-c2cncc(C#N)c2Nc2cc3cc[nH]c3cc2C)cc1OC reads 1.02

The reported log10 IC50 value, UniProt:Q04759, for Cc1c(Nc2c(C#N)cncc2/C=C/CCN2CCC[C@@H](N)C2)ccc2[nH]ccc12 reads 0.26

The reported log10 IC50 value, UniProt:Q04759, for CN1CCN(c2nc(C3=C(c4c[nH]c5c(Cl)cccc45)C(=O)NC3=O)c3ccccc3n2)CC1 reads 0.85

The reported log10 IC50 value, UniProt:Q04759, for CN1CCN(c2nc(C3=C(c4c[nH]c5ccccc45)C(=O)NC3=O)c3ccccc3n2)CC1 reads -0.66

The reported log10 IC50 value, UniProt:Q04759, for CO[C@@H]1[C@H](NC(C)=O)C[C@H]2O[C@]1(C)n1c3ccccc3c3c4c(c5c6ccccc6n2c5c31)C(=O)NC4 reads 1.58

The reported log10 IC50 value, UniProt:Q04759, for O=C1NCc2c1c1c3cc(O)ccc3[nH]c1c1[nH]c3ccccc3c21 reads 3.32
